Value source: patent US11530244B2

target: PCSK9 (Homo sapiens (Human), UniProt Q8NBP7); assay: PCSK9 Alexa FRET Plus assay (displacement of AlexaFluor647 tagged cyclic peptide Reagent B); assay type: binding; settings: Alexa FRET Plus, 0.5 nM PCSK9, 960 nM AF cyclic peptide Reagent B; read-out: IC50
Sequence (Q8NBP7 153-692): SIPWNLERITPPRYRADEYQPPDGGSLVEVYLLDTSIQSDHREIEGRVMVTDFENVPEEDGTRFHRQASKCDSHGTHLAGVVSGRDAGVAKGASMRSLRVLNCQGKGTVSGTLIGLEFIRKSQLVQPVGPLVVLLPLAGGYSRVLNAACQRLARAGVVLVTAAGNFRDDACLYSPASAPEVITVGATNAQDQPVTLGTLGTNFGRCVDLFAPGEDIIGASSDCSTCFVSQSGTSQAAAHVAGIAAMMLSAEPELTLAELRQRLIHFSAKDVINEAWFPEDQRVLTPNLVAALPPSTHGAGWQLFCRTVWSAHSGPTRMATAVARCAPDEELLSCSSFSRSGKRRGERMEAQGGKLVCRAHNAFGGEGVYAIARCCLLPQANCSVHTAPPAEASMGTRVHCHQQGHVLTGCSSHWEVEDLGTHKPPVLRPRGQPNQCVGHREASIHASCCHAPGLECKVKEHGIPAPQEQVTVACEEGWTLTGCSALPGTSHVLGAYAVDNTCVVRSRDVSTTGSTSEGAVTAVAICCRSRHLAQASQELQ
Starred links: 1 amine or outer side, 2 acyl side, 3 side chain; linkers in the order of their positions; H or OH if unused. Positions of bridges follow the written chain, without caps; N, C: chain ends. Non-standard residues stand in square brackets, D forms with d. Residues, ends and D or L forms follow the SMILES beside them. Trp(5-F) = N[C@@H](Cc1c[nH]c2ccc(F)cc12)C(=O)O; Phe(4-CH2NH2) = NCc1ccc(C[C@H](N)C(=O)O)cc1; X49 = NCCCC[C@H](N[*:1])c1nc(C(=O)[*:2])co1; mXylylene = c1cc(C[*:1])cc(C[*:2])c1; X48 = CC(N[*:1])c1ncc(C(=O)[*:2])s1; Adipoyl = O=C(CCCCC(=O)[*:2])[*:1]; Glutaryl = O=C(CCCC(=O)[*:2])[*:1]; αMeP = C[C@@]1(C(=O)O)CCCN1; Mpa = O=C(O)CCS
metric_name: IC50

q: I'm curious: which IC50 was measured for C[C@@]12CCCN1C(=O)[C@H](Cc1ccc(O)cc1)NC(=O)[C@H](Cc1c[nH]cn1)NC(=O)[C@H](CC(=O)O)NC(=O)[C@H](Cc1c[nH]c3ccc(F)cc13)NC(=O)[C@H](Cc1c[nH]c3ccc(F)cc13)NC(=O)c1coc(n1)[C@H](CCCCN)NC(=O)CCSCc1cccc(c1)CSC[C@@H](C(N)=O)NC2=O [Compound 477] ([Mpa][X49][Trp(5-F)][Trp(5-F)]DHY[αMeP]C-NH2; linker 1-9 via mXylylene) tested on PCSK9 (Homo sapiens (Human), UniProt Q8NBP7)?
a: 500 to 5000 nM

q: Enter reported IC50 observed with PCSK9 (Homo sapiens (Human), UniProt Q8NBP7) for C[C@@H]1NC(=O)CCCC(=O)NCc2ccc(cc2)C[C@@H](C(N)=O)NC(=O)[C@]2(C)CCCN2C(=O)[C@H](Cc2ccc(O)cc2)NC(=O)[C@H](Cc2cnc[nH]2)NC(=O)[C@H](CC(=O)O)NC(=O)[C@H](Cc2c[nH]c3ccc(F)cc23)NC(=O)[C@H](Cc2c[nH]c3ccc(F)cc23)NC(=O)CNC1=O [Compound 366] (AG[Trp(5-F)][Trp(5-F)]DHY[αMeP][Phe(4-CH2NH2)]-NH2; linker N-9 via Glutaryl)
a: 0.1 to 100 nM

q: Lookup: IC50 / PCSK9 (Homo sapiens (Human), UniProt Q8NBP7) / COc1ccc(C[C@@H]2NC(=O)[C@H](Cc3cnc[nH]3)NC(=O)[C@H](CC(=O)O)NC(=O)[C@H](Cc3c[nH]c4ccc(F)cc34)NC(=O)[C@H](Cc3c[nH]c4ccc(F)cc34)NC(=O)[C@@H](C)NC(=O)CCCCC(=O)NCc3ccc(cc3)C[C@@H](C(N)=O)NC(=O)[C@]3(C)CCCN3C2=O)cc1 [Compound 419] ([dA][Trp(5-F)][Trp(5-F)]DHY(Me)[αMeP][Phe(4-CH2NH2)]-NH2; linker N-8 via Adipoyl)
a: 500 to 5000 nM

q: Find the measured IC50: item CC1NC(=O)[C@H](Cc2c[nH]c3ccc(F)cc23)NC(=O)[C@H](Cc2c[nH]c3ccc(F)cc23)NC(=O)[C@@H](C)NC(=O)[C@H](CCCCN)NC(=O)CCSCc2cccc(c2)CSC[C@@H](C(N)=O)NC(=O)[C@]2(C)CCCN2C(=O)[C@H](Cc2ccc(O)cc2)NC(=O)C2=CN=C1S2 (stereo partly drawn) [Compound 480] ([Mpa]K[dA][Trp(5-F)][Trp(5-F)][X48]Y[αMeP]C-NH2; linker 1-9 via mXylylene) , target or system PCSK9 (Homo sapiens (Human), UniProt Q8NBP7).
a: 500 to 5000 nM

q: Given the entry C[C@@]12CCCN1C(=O)[C@H](Cc1ccc(O)cc1)NC(=O)CN1C(=O)[C@H](COc3ccccc31)NC(=O)[C@H](Cc1c[nH]c3ccc(F)cc13)NC(=O)[C@H](Cc1c[nH]c3ccc(F)cc13)NC(=O)CNC(=O)[C@H](CCCCN)NC(=O)CCSCc1cccc(c1)CSC[C@@H](C(N)=O)NC2=O , what IC50 was observed with PCSK9 (Homo sapiens (Human), UniProt Q8NBP7)?
a: 0.1 to 100 nM

q: Short answer please: IC50, PCSK9 (Homo sapiens (Human), UniProt Q8NBP7), entry C[C@@]12CCCN1C(=O)[C@H](Cc1ccc(O)cc1)NC(=O)CN1C(=O)[C@@H](N=C(C3CCCCC3)c3ccccc31)NC(=O)[C@H](Cc1c[nH]c3ccc(F)cc13)NC(=O)[C@H](Cc1c[nH]c3ccc(F)cc13)NC(=O)CNC(=O)[C@H](CCCCN)NC(=O)CCSCc1cccc(c1)CSC[C@@H](C(N)=O)NC2=O
a: 500 to 5000 nM
